Target: APOL1 G1 (Homo sapiens, UniProt O14791, I384M/S342G)
Assay: Trypanosoma brucei brucei Lysis Assay Using APOL1 Recombinant Protein (AlamarBlue viability readout)
Assay type: cell-based
Conditions: Trypanosome Assay; IP50 = IC50 for cell proliferation; read-out: Trypanosome Assay IP50
Excerpt: Trypanosoma brucei brucei is a blood stream parasite to which human, gorillas, and baboons are immune due to the presence of the APOL1 protein in their HDL particles. […] Briefly, the AlamarBlue active compound, resazurin, a blue, water soluble, non-toxic and cell permeable molecule, which can be followed by absorbance, is reduced by various metabolic pathways into resorufin, a red compound which can be followed by either absorbance or fluorescence. […]
pIC50: −log10 of the molar value.
In this section, each of the compounds is paired with its reported pIC50.

The cases that follow already have their pIC50 on record.
C[C@@H]1CC2(C[C@H](C)N1)OCCc1sc(C(F)(F)F)cc12 (single isomer, unassigned) [Compound 196] | 6.30 to 7.30
CC(C)c1cc2c(s1)C1(C[C@@H](C)N[C@@H](C)C1)OCC2 (single isomer, unassigned) [Compound 200] | 6.30 to 7.30
COCCn1cc([C@@H]2C[C@]3(C[C@H](C)N2)OCCc2cc(Cl)sc23)cn1 (racemic) [Compound 90] | > 7.30

Okay, now this compound:
Name the reported pIC50 value associated with the compound CCc1cc2c(s1)CCOC21C[C@@H](c2cn(C)nn2)N[C@@H](C)C1 (stereo in doubt) [Compound 4]
> 7.30

====

In this section, each of the molecules is paired with its reported Multi-Tox Assay Max Activity (%).
Target: APOL1 (Homo sapiens, UniProt O14791)
Sequence (O14791 1-398 S342G/I384M): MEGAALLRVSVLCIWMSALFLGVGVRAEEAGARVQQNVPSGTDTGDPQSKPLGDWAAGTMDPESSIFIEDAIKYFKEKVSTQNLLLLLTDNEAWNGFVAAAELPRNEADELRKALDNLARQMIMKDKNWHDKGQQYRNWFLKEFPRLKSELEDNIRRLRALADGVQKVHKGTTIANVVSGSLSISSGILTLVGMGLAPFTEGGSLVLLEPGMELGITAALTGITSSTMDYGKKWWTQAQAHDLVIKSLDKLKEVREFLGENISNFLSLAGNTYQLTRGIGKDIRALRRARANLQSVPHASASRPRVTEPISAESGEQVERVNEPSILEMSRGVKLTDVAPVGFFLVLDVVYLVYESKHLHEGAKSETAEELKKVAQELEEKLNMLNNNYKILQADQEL
Assay: Multi-Tox Assay (MultiTox-Fluor Multiplex Cytotoxicity Assay in tet-inducible APOL1 T-REx-HEK293 cells; Table 46 does not say which APOL1 variant G0/G1/G2)
Format: cell-based
Settings: APOL1 variant not given
Note: unit % is implicit; provide only the numeric part.

The cases that follow already have their Multi-Tox Assay Max Activity (%) on record.
Cc1cc(O)ncc1[C@@H]1C[C@]2(C[C@H](C)N1)OCCc1cc(Cl)sc12 (racemic) [Compound 125] | 99.7
Cc1nc([C@@H]2C[C@]3(C[C@H](C)N2)OCCc2cc(Cl)sc23)[nH]c1C (racemic) [Compound 150] | 96.3
C[C@H]1C[C@@]2(C[C@@H](c3c[nH]c(C4CC4)n3)N1)OCCc1cc(Cl)sc12 (racemic) [Compound 130] | 99.0

Recorded Multi-Tox Assay Max Activity (%) for CCc1nc([C@@H]2C[C@]3(C[C@H](C)N2)OCCc2cc(Cl)sc23)c[nH]1 (racemic) [Compound 128] with APOL1 (Homo sapiens, UniProt O14791), please?
99.3

Recorded Multi-Tox Assay Max Activity (%) for C[C@H]1C[C@@]2(C[C@@H](c3ccnn3C)N1)OCCc1cc(Cl)sc12 (racemic) [Compound 152] with APOL1 (Homo sapiens, UniProt O14791), please?
98.0

Recorded Multi-Tox Assay Max Activity (%) for COc1cc(O)cc([C@@H]2C[C@]3(C[C@H](C)N2)OCCc2cc(Cl)sc23)c1 (racemic) [Compound 137] with APOL1 (Homo sapiens, UniProt O14791), please?
98.7

Recorded Multi-Tox Assay Max Activity (%) for C[C@H]1C[C@@]2(C[C@@H](c3cn(Cc4ccc(O)nc4)nn3)N1)OCC(F)(F)c1cc(Cl)sc12 [Compound 316] with APOL1 (Homo sapiens, UniProt O14791), please?
95.0
